Origin of the recorded values: patent US8138191B2

- PROTOCOL: in vitro
- CONDITION_DETAILS: human, Caco-2, A-B permeability (Papp)
- Description: TC7 cells were seeded at 1×10^5 cells/cm^2 on porous polycarbonate membrane in 96-well Multiscreen™ plates (Millipore). Cells were fed every 2 to 3 days and the day before the permeability assay. […] Samples were analyzed via (RP)HPLC-MS/MS using selected reaction monitoring (SRM). […] The apparent permeability coefficient (Papp) of COTI-2 in the […] and the percent recovery of the compounds were calculated.
EXPERIMENTAL_READOUT: Papp A→B at 10 µM

Prompt line: Entry under review: S=C(N/N=C1/CCCc2cccnc21)N1CCN(c2ccccn2)CC1 . Reported Papp A→B at 10 µM?
Response line: < 0.3 ×10⁻⁶ cm/s

----------
- ASSAYED_SYSTEM: CYP1A (Homo sapiens, UniProt P05177)
- Sequence (P05177 whole entry): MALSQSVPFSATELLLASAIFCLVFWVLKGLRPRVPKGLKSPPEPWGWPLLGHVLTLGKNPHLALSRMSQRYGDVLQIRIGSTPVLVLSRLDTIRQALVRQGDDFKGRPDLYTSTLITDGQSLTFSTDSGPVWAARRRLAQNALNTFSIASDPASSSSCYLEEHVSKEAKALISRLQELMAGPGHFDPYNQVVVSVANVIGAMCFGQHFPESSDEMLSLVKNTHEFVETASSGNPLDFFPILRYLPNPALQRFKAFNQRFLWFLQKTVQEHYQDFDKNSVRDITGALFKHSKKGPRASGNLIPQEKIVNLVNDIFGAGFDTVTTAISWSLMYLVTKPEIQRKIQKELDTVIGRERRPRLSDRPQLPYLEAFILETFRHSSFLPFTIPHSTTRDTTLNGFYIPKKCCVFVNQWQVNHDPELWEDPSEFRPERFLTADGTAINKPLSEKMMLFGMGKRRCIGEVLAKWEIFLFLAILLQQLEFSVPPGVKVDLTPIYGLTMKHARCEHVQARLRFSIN
- PROTOCOL: in vitro
- CONDITION_DETAILS: both, human liver microsomes, pH 7.4, probe phenacetin (10 µM)
EXPERIMENTAL_READOUT: inhibition at 15 min, 10 µM (%)
Give just the numeric value; % need not be written.

Prompt line: Reported inhibition at 15 min, 10 µM, molecule S=C(N/N=C1/CCCc2cccnc21)N1CCN(c2ccccn2)CC1 : ____
Response line: -2

----------
- ASSAYED_SYSTEM: CYP2D6 (Homo sapiens, UniProt P10635)
- Sequence (P10635 whole entry): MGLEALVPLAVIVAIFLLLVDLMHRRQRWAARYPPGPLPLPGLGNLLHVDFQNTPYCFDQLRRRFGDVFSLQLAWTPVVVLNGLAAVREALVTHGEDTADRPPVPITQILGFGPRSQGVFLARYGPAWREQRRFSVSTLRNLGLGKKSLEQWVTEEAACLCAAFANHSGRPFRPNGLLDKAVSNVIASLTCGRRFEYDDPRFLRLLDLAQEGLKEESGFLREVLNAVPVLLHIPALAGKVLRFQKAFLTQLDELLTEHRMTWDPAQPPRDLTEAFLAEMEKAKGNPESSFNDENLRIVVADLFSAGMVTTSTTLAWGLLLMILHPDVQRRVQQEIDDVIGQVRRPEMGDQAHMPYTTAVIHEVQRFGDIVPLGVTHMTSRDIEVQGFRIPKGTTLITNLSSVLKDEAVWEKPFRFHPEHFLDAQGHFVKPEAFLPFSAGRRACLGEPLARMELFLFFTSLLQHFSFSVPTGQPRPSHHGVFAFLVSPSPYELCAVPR
- PROTOCOL: in vitro
- Assay type: in vitro ADME
- CONDITION_DETAILS: both sexes, human liver microsomes, pH 7.4, probe dextromethorphan (10 µM), CYP2D6, HLM, dextromethorphan substrate, 1.0E−05 M, read-out: % Inhibition of Control Values
EXPERIMENTAL_READOUT: inhibition at 15 min, 10 µM (%)
Give just the numeric value; % need not be written.

Prompt line: Please give the measured inhibition at 15 min, 10 µM for this compound: S=C(N/N=C1/CCCc2cccnc21)N1CCN(c2ccccn2)CC1
Response line: 2

----------
- PROTOCOL: in vitro
- Assay type: in vitro ADME
- CONDITION_DETAILS: mixed breeds, rat, % Recovery 2nd
EXPERIMENTAL_READOUT: recovery at 10 µM (%)
State the answer as a number, implicitly in %.

Prompt line: Which value of recovery at 10 µM has been reported for S=C(N/N=C1/CCCc2cccnc21)N1CCN(c2ccccn2)CC1 in the records?
Response line: 25.1

----------
- Test system: HCT-15
- PROTOCOL: Tumor cell proliferation, single agents and combinations, HCT-15
- Format: cell-based
- CONDITION_DETAILS: Homo sapiens; HCT-15, Colon, KRAS - MUT; read-out: Mean IC50, single agent
Each entry below carries its recorded IC50.
Report as a plain number; the unit µM is understood.

C#Cc1cccc(Nc2ncnc3cc(OCCOC)c(OCCOC)cc23)c1	5.1

With those in mind, consider the next compound.
Prompt line: Param item = CN1CCN(C(=S)NN=C2c3ncccc3-c3cccnc32)CC1 ; retrieve measured IC50.
Response line: 0.0051

----------
This listing pairs compounds with measured half-life.
- PROTOCOL: Half-life and liver clearance rate by human liver microsomes (HLM) at 0.5 mg/mL
- Type: in vitro ADME
- CONDITION_DETAILS: liver microsomes, value before brackets, from 3 in vitro experiments, read-out: In vitro T½

CN1CCN(C(=S)NN=C2c3ncccc3-c3cccnc32)CC1	~6.8 h

Prompt line: State the recorded half-life for this entry: S=C(N/N=C1/CCCc2cccnc21)N1CCN(c2ccccn2)CC1
Response line: ~6 h
